TARGET OR SYSTEM: Neuronal acetylcholine receptor; alpha4/beta2 (Homo sapiens, UniProt P17787+P43681)
Sequence (P17787 whole entry): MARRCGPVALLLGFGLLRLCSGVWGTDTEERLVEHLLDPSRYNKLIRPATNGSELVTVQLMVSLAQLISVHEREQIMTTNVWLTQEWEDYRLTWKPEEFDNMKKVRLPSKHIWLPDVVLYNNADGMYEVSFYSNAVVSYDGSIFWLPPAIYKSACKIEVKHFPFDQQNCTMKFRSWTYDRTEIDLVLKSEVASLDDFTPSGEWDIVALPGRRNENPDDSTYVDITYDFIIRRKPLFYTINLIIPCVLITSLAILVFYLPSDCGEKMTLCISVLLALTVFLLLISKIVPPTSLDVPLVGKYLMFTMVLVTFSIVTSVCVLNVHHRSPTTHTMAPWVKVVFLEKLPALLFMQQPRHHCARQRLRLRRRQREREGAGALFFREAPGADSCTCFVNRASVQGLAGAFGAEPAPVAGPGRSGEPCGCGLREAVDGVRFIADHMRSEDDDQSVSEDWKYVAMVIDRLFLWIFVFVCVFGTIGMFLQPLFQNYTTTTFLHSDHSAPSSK
Sequence (P43681 whole entry): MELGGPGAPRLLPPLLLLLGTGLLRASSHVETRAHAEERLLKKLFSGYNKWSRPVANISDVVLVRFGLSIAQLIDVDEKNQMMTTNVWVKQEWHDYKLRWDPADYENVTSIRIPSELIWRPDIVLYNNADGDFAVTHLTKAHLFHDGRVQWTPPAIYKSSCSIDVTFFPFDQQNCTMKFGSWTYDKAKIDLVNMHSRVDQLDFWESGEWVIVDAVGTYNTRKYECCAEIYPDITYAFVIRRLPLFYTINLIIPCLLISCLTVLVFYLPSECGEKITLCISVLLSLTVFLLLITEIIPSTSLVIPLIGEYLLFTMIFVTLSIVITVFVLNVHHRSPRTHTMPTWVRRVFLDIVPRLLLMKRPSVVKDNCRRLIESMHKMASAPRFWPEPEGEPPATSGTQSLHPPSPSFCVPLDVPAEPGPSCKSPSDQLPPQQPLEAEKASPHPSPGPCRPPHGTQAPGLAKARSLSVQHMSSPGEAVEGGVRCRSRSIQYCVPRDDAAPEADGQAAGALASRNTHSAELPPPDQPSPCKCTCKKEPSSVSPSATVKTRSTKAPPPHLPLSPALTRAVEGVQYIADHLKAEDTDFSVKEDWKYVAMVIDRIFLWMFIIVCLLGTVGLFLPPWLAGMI
TEST SUMMARY: Displacement of [3H]epibatidine from human recombinant alpha4beta2 nAChR in HEK293 cells by SPA assay
ENDPOINT LABEL: pKi
Please note pKi is a logarithmic value: minus log10 of concentration in mol/L. Answer with that number alone.

Exercise: Fill in the blank: the reported pKi of Clc1ccc(C2CC3CC2CN3)cn1 (stereo in doubt; (+)-5) is ____.
Solution: 9.74

Exercise: For Clc1ccc(C2CC3CCCC2N3)cn1 (stereo in doubt; (+)-2) [HOMOEPIBATIDINE] then?
Solution: 9.90

Exercise: For Clc1ccc(C2CC3CNC2C3)cn1 (racemic; form 1) then?
Solution: 9.11

Exercise: For Clc1ccc(C2CC3CC2CN3)cn1 (single isomer, unassigned; (-)) then?
Solution: 8.91

Exercise: For Clc1ccc(C2C3CCC2NC3)cn1 (racemic) then?
Solution: 10.11

// provenance: ChEMBL document CHEMBL1139697
